# Tested on: windgrass (Apera spica-venti)
# TEST_PROTOCOL: Test B postemergence plant response
# Assay type: in vivo
# ASSAY_CONDITIONS: Postemergence, 31 g ai/ha; 0 to 100 scale (0 no effect, 100 complete control)
# Plant response rating, Windgrass >= 20 gives rule met, anything below gives rule not met

Cc1cc(-n2c(-c3cccc(F)c3)ncc(C(=O)C3=C(O)CCCC3=O)c2=O)ccc1F [Compound 191] | rule met
COCCn1c(-c2ccsc2)ncc(C(=O)C2=C(O)C3CCC(C3)C2=O)c1=O (stereo not shown) [Compound 228] | rule not met
CCCn1c(-c2ccsc2)ncc(C(=O)C2=C(O)C3CCC(C3)C2=O)c1=O (stereo not shown) [Compound 227] | rule not met
CCCCn1c(-c2cc(F)cc(F)c2)ncc(C(=O)C2=C(O)C3CCC(C3)C2=O)c1=O (stereo not shown) [Compound 245] | rule met
O=C1CCCC(O)=C1C(=O)c1cnc(-c2ccc(F)cc2)n(C2CCCCC2)c1=O [Compound 197] | rule not met

Please look at the following compound next.
Query: Is the recorded value of Plant response rating, Windgrass equal to or greater than 20 for this compound? O=C1CCCC(O)=C1C(=O)c1cnc(-c2cccs2)n(C2CCCCC2)c1=O [Compound 189]
Reply: rule met

Data provenance: patent US8952024B2
